testedOn: serum sample IHUS#B09032311A1
runDescription: ECL drug displacement assay, variant as competitor against labelled SEQ ID NO:1

- binder: "Example 1C: (A14P) (VHH) VHH: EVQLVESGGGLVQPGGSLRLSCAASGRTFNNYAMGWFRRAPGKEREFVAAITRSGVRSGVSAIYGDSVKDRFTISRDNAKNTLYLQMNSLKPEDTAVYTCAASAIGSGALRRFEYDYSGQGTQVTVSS"
  resultUnit: "%"
  % reduction: 10
- binder: "Example 1C: (K83R) (VHH) VHH: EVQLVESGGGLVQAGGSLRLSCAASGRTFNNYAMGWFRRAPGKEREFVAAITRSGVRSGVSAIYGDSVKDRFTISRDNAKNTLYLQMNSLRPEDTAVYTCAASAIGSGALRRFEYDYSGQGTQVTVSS"
  resultUnit: "%"
  % reduction: 1
- binder: "Example 1C: (A14P, K83R, Q108L) (VHH) VHH: EVQLVESGGGLVQPGGSLRLSCAASGRTFNNYAMGWFRRAPGKEREFVAAITRSGVRSGVSAIYGDSVKDRFTISRDNAKNTLYLQMNSLRPEDTAVYTCAASAIGSGALRRFEYDYSGQGTLVTVSS"
  resultUnit: "%"
  % reduction: 8
- binder: "Example 1C: (A14P, R39Q, K83R, T91Y, Q108L)-QA (VHH) VHH: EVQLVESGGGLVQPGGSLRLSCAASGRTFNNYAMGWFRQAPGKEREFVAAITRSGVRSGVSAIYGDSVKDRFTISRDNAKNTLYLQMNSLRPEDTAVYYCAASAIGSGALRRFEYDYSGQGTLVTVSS"
  resultUnit: "%"
  % reduction: 3
